Molecular target: TAS1R2 (Homo sapiens, UniProt Q8TE23)
Construct: VFT domain of TAS1R2 in the TAS1R2/TAS1R3 heterodimer; with TAS1R3 (human; also mouse TAS1R3)
Sequence (Q8TE23 22-839): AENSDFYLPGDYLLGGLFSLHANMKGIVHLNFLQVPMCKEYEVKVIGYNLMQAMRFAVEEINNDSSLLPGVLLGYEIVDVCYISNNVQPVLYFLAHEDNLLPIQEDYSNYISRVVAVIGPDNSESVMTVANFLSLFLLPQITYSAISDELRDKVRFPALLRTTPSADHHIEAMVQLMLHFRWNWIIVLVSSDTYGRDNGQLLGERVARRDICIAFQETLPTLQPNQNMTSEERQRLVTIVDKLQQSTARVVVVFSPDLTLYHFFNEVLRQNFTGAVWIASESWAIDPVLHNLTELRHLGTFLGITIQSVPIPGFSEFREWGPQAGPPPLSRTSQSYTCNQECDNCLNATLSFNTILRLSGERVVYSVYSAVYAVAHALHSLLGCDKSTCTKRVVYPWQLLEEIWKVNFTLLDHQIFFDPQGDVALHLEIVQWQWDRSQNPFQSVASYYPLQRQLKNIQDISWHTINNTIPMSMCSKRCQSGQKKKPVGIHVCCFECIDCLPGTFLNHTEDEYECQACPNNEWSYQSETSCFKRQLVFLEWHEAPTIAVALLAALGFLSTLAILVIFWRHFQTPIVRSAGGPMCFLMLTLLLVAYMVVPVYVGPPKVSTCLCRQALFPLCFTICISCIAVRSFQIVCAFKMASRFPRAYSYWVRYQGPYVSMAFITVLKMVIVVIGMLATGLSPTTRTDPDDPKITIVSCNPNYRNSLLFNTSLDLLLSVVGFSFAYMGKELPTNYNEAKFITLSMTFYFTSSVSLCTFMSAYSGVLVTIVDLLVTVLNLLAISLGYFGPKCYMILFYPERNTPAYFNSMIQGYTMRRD
Sequence (Q7RTX0 21-852 partner): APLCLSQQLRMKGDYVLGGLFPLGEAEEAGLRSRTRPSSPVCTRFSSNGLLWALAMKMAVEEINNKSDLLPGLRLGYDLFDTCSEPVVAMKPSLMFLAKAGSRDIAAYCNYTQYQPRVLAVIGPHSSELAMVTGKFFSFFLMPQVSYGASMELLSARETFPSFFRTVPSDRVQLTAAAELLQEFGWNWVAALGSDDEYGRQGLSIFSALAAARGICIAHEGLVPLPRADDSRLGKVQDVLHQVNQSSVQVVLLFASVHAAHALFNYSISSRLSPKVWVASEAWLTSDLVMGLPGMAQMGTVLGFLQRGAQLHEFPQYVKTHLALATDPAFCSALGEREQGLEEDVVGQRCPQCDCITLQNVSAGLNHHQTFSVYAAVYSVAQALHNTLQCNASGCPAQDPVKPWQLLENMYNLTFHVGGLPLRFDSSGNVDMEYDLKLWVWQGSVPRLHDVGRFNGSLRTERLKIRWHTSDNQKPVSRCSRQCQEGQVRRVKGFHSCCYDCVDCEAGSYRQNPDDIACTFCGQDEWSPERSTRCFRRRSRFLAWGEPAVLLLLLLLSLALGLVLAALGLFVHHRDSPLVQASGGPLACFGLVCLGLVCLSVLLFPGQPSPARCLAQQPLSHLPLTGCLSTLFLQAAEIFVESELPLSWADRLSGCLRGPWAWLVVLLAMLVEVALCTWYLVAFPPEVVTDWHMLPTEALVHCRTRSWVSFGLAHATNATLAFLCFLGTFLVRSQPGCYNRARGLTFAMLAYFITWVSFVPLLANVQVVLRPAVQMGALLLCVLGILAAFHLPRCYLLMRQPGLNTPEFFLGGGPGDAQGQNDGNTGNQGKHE
Assay: cryo-EM structures of human/human and human/mouse receptor with advantame; EC50 from cell-based calcium imaging (human/human)
metric.name: pEC50
Quick note: pEC50 means taking -log10 of the concentration in moles per liter.

Q: // query pEC50 value for entry `COC(=O)[C@H](Cc1ccccc1)NC(=O)[C@H](CC(=O)O)NCCCc1ccc(OC)c(O)c1`
A: 6.05
